Source: ChEMBL document CHEMBL1129906

# ASSAYED_SYSTEM: UniProt P10980
# Sequence (P10980 whole entry): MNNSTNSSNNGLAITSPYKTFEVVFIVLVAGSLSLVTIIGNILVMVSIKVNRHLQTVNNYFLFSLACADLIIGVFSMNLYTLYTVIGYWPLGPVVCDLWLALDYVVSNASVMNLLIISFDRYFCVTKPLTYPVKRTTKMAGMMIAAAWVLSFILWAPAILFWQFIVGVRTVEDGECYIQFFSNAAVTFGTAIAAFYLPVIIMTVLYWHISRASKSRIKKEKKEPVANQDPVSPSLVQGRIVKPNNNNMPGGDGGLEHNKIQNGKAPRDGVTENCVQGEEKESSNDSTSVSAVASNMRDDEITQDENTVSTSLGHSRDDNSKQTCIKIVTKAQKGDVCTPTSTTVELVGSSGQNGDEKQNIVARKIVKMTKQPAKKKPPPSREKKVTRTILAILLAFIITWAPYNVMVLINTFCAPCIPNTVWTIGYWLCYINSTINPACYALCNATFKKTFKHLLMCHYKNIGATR
# PROCEDURE_TEXT: Muscarinic receptor M2 in rat heart using [3H]QNB (quinuclidinyl benzylate) radioligand as a M2 non-selective muscarinic receptor antagonist at a concentration of 0.12 nM
PROPERTY_MEASURED: IC50 (nM)

MOL: C(#CCN1CCCC1)COC1=NOCC1
QUANTITATIVE_RESULT: 233
--
MOL: CN(C)CC#CCN1OCCC1=O
QUANTITATIVE_RESULT: 1380
--
MOL: O=C1CCON1CC#CCN1CCCC1
QUANTITATIVE_RESULT: 215
--
MOL: C[N+](C)(C)CC#CCN1OCCC1=O
QUANTITATIVE_RESULT: 74
--
MOL: O=C1CCCN1CC#CCN1CCCC1
QUANTITATIVE_RESULT: 84

###

# ASSAYED_SYSTEM: Muscarinic acetylcholine receptor M1 (Rattus norvegicus)
# Sequence (P08482 whole entry): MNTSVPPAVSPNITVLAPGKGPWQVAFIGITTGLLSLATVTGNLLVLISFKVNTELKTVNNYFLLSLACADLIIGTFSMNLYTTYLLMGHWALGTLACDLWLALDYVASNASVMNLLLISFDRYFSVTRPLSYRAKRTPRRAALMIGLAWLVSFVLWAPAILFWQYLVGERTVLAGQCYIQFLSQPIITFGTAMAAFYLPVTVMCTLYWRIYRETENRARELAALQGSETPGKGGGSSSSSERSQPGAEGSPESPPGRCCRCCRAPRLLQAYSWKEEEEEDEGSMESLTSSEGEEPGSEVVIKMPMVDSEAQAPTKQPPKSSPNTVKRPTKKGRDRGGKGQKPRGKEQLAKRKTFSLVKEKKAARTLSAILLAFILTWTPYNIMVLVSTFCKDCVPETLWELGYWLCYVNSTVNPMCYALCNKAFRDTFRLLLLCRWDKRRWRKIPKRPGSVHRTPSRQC
Below, each entry is listed alongside its reported IC50.

COMPOUND: O=C1CCCN1CC#CCN1CCCC1 [OXOTREMORINE]
IC50 [nM]: 100

COMPOUND: C[N+](C)(C)CC#CCN1OCCC1=O
IC50 [nM]: 1300

COMPOUND: C(#CCN1CCCC1)COC1=NOCC1
IC50 [nM]: 412

COMPOUND: O=C1CCON1CC#CCN1CCCC1
IC50 [nM]: 78

COMPOUND: CN(C)CC#CCN1OCCC1=O
IC50 [nM]: 7100

###

Below, each entry is listed alongside its reported pIC50.
# ASSAYED_SYSTEM: Muscarinic acetylcholine receptor M2 (Rattus norvegicus)
# PROCEDURE_TEXT: Binding affinity against Muscarinic receptor M2 in rat brain using [3H]QNB (quinuclidinyl benzylate) radioligand at a concentration of 0.12 nM
# Type: tissue-based
pIC50: −log10 of the molar value.

COMPOUND: O=C1CCON1CC#CCN1CCCC1
pIC50: 5.55
--
COMPOUND: CN(C)CC#CCN1OCCC1=O
pIC50: 4.00
--
COMPOUND: C[N+](C)(C)CC#CCN1OCCC1=O
pIC50: 4.76
--
COMPOUND: C(#CCN1CCCC1)COC1=NOCC1
pIC50: 5.07
--
COMPOUND: O=C1CCCN1CC#CCN1CCCC1 [OXOTREMORINE]
pIC50: 5.70
